Data credit: paper PMC1635251

- measurement.target: HIV-1 reverse transcriptase p66/p51 (HIV-1, UniProt P03366;P03366 600-1159;600-1039)
- protocol.details: filter binding
Assignment: determine reported binding signal for the given binders.

INPUT: binding signal lookup needed for UCGUGU (XNA, 4-thio-U at position 4) [4-thioU-Hex-S3R] , thanks.
OUTPUT: 9.8 relative binding (unit not printed)

INPUT: binding signal lookup needed for TCGTGT (ssDNA) [Hex-S3D] , thanks.
OUTPUT: 8.1 relative binding (unit not printed)

INPUT: binding signal lookup needed for TCGTGT (XNA, fully 2'-OMe) [Hex-S3D-2'OMe] , thanks.
OUTPUT: 2 relative binding (unit not printed)

INPUT: binding signal lookup needed for TCGTGT (XNA, phosphorothioate) [Hex-S3D-PS] , thanks.
OUTPUT: 52.8 relative binding (unit not printed)
